Numbers sourced from patent US20210388053A1.

Molecular target: canine FcRn/B2M protein complex (canine FcRn ECD with C-terminal poly-His tag and canine Beta-2-Microglobulin) (canine)
Test: SPR Biacore 8K, pH 6.0, 25 C; Fc captured by SASA tag on BSA chip, FcRn/B2M 400 nM as analyte
Readout Name: pKd
// pKd is dimensionless: -log10 of concentration (M)

Some binders with recorded pKd:
INSERT INTO results (binder, readout_value) VALUES
  ('variant canine IgG-B Fc polypeptide Y0Y (Leu24Tyr, Asn208Tyr) (protein, not shown: small tags and cut ends) CPAPEMLGGPSVFIFPPKPKDTLYIARTPEVTCVVVDLDPEDPEVQISWFVDGKQMQTAKTQPREEQFNGTYRVVSVLPIGHQDWLKGKQFTCKVNNKALPSPIERTISKARGQAHQPSVYVLPPSREELSKNTVSLTCLIKDFFPPDIDVEWQSNGQQEPESKYRTTPPQLDEDGSYFLYSKLSVDKSRWQRGDTFICAVMHEALHYHYTQESLSHSPGK', 9.31),
  ('variant canine IgG-B Fc polypeptide 0YF (Gln83Tyr, Asn208Phe) (protein, not shown: small tags and cut ends) CPAPEMLGGPSVFIFPPKPKDTLLIARTPEVTCVVVDLDPEDPEVQISWFVDGKQMQTAKTQPREEQFNGTYRVVSVLPIGHYDWLKGKQFTCKVNNKALPSPIERTISKARGQAHQPSVYVLPPSREELSKNTVSLTCLIKDFFPPDIDVEWQSNGQQEPESKYRTTPPQLDEDGSYFLYSKLSVDKSRWQRGDTFICAVMHEALHFHYTQESLSHSPGK', 8.51),
  ('YTE variant canine IgG-B Fc polypeptide (Leu24Tyr, Ala26Thr, Thr28Glu) (protein, not shown: small tags and cut ends) CPAPEMLGGPSVFIFPPKPKDTLYITREPEVTCVVVDLDPEDPEVQISWFVDGKQMQTAKTQPREEQFNGTYRVVSVLPIGHQDWLKGKQFTCKVNNKALPSPIERTISKARGQAHQPSVYVLPPSREELSKNTVSLTCLIKDFFPPDIDVEWQSNGQQEPESKYRTTPPQLDEDGSYFLYSKLSVDKSRWQRGDTFICAVMHEALHNHYTQESLSHSPGK', 7.51),
  ('variant canine IgG-B Fc polypeptide 0YW (Gln83Tyr, Asn208Trp) (protein, not shown: small tags and cut ends) CPAPEMLGGPSVFIFPPKPKDTLLIARTPEVTCVVVDLDPEDPEVQISWFVDGKQMQTAKTQPREEQFNGTYRVVSVLPIGHYDWLKGKQFTCKVNNKALPSPIERTISKARGQAHQPSVYVLPPSREELSKNTVSLTCLIKDFFPPDIDVEWQSNGQQEPESKYRTTPPQLDEDGSYFLYSKLSVDKSRWQRGDTFICAVMHEALHWHYTQESLSHSPGK', 8.21),
  ('variant canine IgG-B Fc polypeptide YYW (Leu24Tyr, Gln83Tyr, Asn208Trp) (protein, not shown: small tags and cut ends) CPAPEMLGGPSVFIFPPKPKDTLYIARTPEVTCVVVDLDPEDPEVQISWFVDGKQMQTAKTQPREEQFNGTYRVVSVLPIGHYDWLKGKQFTCKVNNKALPSPIERTISKARGQAHQPSVYVLPPSREELSKNTVSLTCLIKDFFPPDIDVEWQSNGQQEPESKYRTTPPQLDEDGSYFLYSKLSVDKSRWQRGDTFICAVMHEALHWHYTQESLSHSPGK', 8.71);

Task: Entry under review: variant canine IgG-B Fc polypeptide Y0F (Leu24Tyr, Asn208Phe) (protein, not shown: small tags and cut ends) CPAPEMLGGPSVFIFPPKPKDTLYIARTPEVTCVVVDLDPEDPEVQISWFVDGKQMQTAKTQPREEQFNGTYRVVSVLPIGHQDWLKGKQFTCKVNNKALPSPIERTISKARGQAHQPSVYVLPPSREELSKNTVSLTCLIKDFFPPDIDVEWQSNGQQEPESKYRTTPPQLDEDGSYFLYSKLSVDKSRWQRGDTFICAVMHEALHFHYTQESLSHSPGK . Reported pKd?
Output: 9.10

Task: Endpoint output: pKd of variant canine IgG-B Fc polypeptide 0YY (Gln83Tyr, Asn208Tyr) (protein, not shown: small tags and cut ends) CPAPEMLGGPSVFIFPPKPKDTLLIARTPEVTCVVVDLDPEDPEVQISWFVDGKQMQTAKTQPREEQFNGTYRVVSVLPIGHYDWLKGKQFTCKVNNKALPSPIERTISKARGQAHQPSVYVLPPSREELSKNTVSLTCLIKDFFPPDIDVEWQSNGQQEPESKYRTTPPQLDEDGSYFLYSKLSVDKSRWQRGDTFICAVMHEALHYHYTQESLSHSPGK . Value?
Output: 8.69

Task: I have this binder here, variant canine IgG-B Fc polypeptide Y0W (Leu24Tyr, Asn208Trp) (protein, not shown: small tags and cut ends) CPAPEMLGGPSVFIFPPKPKDTLYIARTPEVTCVVVDLDPEDPEVQISWFVDGKQMQTAKTQPREEQFNGTYRVVSVLPIGHQDWLKGKQFTCKVNNKALPSPIERTISKARGQAHQPSVYVLPPSREELSKNTVSLTCLIKDFFPPDIDVEWQSNGQQEPESKYRTTPPQLDEDGSYFLYSKLSVDKSRWQRGDTFICAVMHEALHWHYTQESLSHSPGK , and I need its recorded pKd.
Output: 8.43

Task: Entry under review: variant canine IgG-B Fc polypeptide YYR (Leu24Tyr, Gln83Tyr, Asn208Arg) (protein, not shown: small tags and cut ends) CPAPEMLGGPSVFIFPPKPKDTLYIARTPEVTCVVVDLDPEDPEVQISWFVDGKQMQTAKTQPREEQFNGTYRVVSVLPIGHYDWLKGKQFTCKVNNKALPSPIERTISKARGQAHQPSVYVLPPSREELSKNTVSLTCLIKDFFPPDIDVEWQSNGQQEPESKYRTTPPQLDEDGSYFLYSKLSVDKSRWQRGDTFICAVMHEALHRHYTQESLSHSPGK . Reported pKd?
Output: 8.74

Task: State the recorded pKd for this entry: wild-type canine IgG-B Fc polypeptide (protein, not shown: small tags and cut ends) CPAPEMLGGPSVFIFPPKPKDTLLIARTPEVTCVVVDLDPEDPEVQISWFVDGKQMQTAKTQPREEQFNGTYRVVSVLPIGHQDWLKGKQFTCKVNNKALPSPIERTISKARGQAHQPSVYVLPPSREELSKNTVSLTCLIKDFFPPDIDVEWQSNGQQEPESKYRTTPPQLDEDGSYFLYSKLSVDKSRWQRGDTFICAVMHEALHNHYTQESLSHSPGK
Output: 6.99
